Assay: qHTS for induction of synthetic lethality in tumor cells producing 2HG: qHTS for the HT-1080-IDH1KD cell line
Conditions: HT-1080 IDH1 knockdown viability, ATP luminescence, 48 h; series mostly up to 46.1 µM
The whole screen tested about 360,000 compounds, of which about 7,500 (2.1%) were called active. Inconclusive results (about 8%) are left out. Calls come from the whole dose curve; as a rule, active = well fitted cell-killing curve with a large enough effect; inconclusive = small, poorly fitted or top-dose-only effect, or effect the other way, or another doubt; inactive = no such curve, though single readings can be large or run the other way. The list comes from a sample in which actives are over-represented; it also holds close analogues and randomly drawn compounds.
Field 'call' accepts True (active), False (inactive)

Worked examples follow.
COC(=O)C(Cc1c[nH]c2ccccc12)NC(=O)CCNC(=O)c1ccco1 (stereo not given) : False
COc1cccc(-c2ccc3c(c2)N(Cc2ccccc2OC)C(=O)C(C)S3)c1 (stereo not given) : False
CCNC(=S)Nc1ccc2c(c1)c(=O)n(C)n2Cc1ccc(Cl)cc1 : False
CCc1cccc(CC)c1N1C(=O)CC(Sc2ccccc2N)C1=O (stereo not given) : False
CC1(C)OC(=O)C2=C(C[C@@H](C3CC3)O[C@H]2c2ccc(Cl)cc2)O1 : False
O=S1(=O)CCN(C2CCCCCCCCCCC2)CC1 : False
Cn1c(CNC(=O)c2ccco2)nnc1SCC(=O)N1CCN(c2ccccc2)CC1 : False
Cc1cc(OCC(=O)Nc2nccs2)c2c(C)c(C)c(=O)oc2c1 : False

Ask: Record lookup: outcome of this test for COc1cccc(CNc2nc(NCc3cccs3)nc3ccsc23)c1 ?
Result: True

Ask: Record lookup: outcome of this test for COc1ccc(Br)cc1/C=N/NC(=O)c1cccc(S(=O)(=O)N2CCOCC2)c1 ?
Result: False

====

Experiment: qHTS for induction of synthetic lethality in tumor cells producing 2HG: qHTS for the HT-1080-IDH1KD cell line
Settings: HT-1080 IDH1 knockdown viability, ATP luminescence, 48 h; series mostly up to 46.1 µM
Out of some 360,000 compounds screened, about 7,500 (2.1%) were called active. Roughly 8% stayed inconclusive and do not appear here. The call rests on the fitted dose curve; in most records, active means well fitted cell-killing curve with a large enough effect; inconclusive means small, poorly fitted or top-dose-only effect, or effect the other way, or another doubt; inactive means no such curve, though single readings can be large or run the other way. The sample as a whole holds a higher share of actives than the screen did.
Field 'call' accepts 1 (yes) = active, 0 (no) = inactive

Worked examples follow.
Cc1ccc(Oc2ccc3c(c2)C(=O)N(c2cccc4cccnc24)C3=O)cc1 : 0 (no)
COc1ccc(C(=O)N2CC3(C)CC2CC(C)(C)C3)cc1OC (stereo not drawn) : 0 (no)
CCCCOC(=O)Nc1nccs1 : 0 (no)
O=C(COc1ccc(Br)cc1)OCC(=O)c1ccc[nH]1 : 0 (no)
O=C1/C(=C\c2cccnc2)CN(Cc2ccccc2)C/C1=C\c1cccnc1 : 1 (yes)
CSc1ncnc2c1ncn2CCCNCc1cccs1 : 0 (no)

Ask: Record lookup: outcome of this test for CC(=O)NC1=NN(C(C)=O)C(C)(c2ccc(Cl)s2)S1 (stereo not drawn) ?
Result: 1 (yes)

Ask: Record lookup: outcome of this test for Cn1cc(CN2CCC(C(O)CCc3ccccc3)CC2)c(-c2ccccc2F)n1 (stereo not drawn) ?
Result: 0 (no)

Ask: Record lookup: outcome of this test for COc1ccc2nc(-c3ccccn3)ccc2c1 ?
Result: 0 (no)

====

Test: qHTS for induction of synthetic lethality in tumor cells producing 2HG: qHTS for the HT-1080-IDH1KD cell line
Conditions: HT-1080 IDH1 knockdown viability, ATP luminescence, 48 h; series mostly up to 46.1 µM
Screen size: about 360,000 compounds; about 7,500 (2.1%) were called active. About 8% were inconclusive and are not listed. The call rests on the fitted dose curve; in most records, active means well fitted cell-killing curve with a large enough effect; inconclusive means small, poorly fitted or top-dose-only effect, or effect the other way, or another doubt; inactive means no such curve, though single readings can be large or run the other way. The full list was thinned out, with actives kept by preference.
Field 'call' accepts active, inactive

Worked examples follow.
COC(=O)[C@@]1(Cc2ccc(F)cc2)[C@H]2c3cc(C(=O)N4CCCC4)n(Cc4ccc(OC(F)(F)F)cc4)c3C[C@H]2CN1C(=O)c1ccccc1 : active
COc1ccc(-c2csc(Nc3ccc(O)cc3)n2)cc1 : active
COc1ccccc1-n1nnnc1SCC(=O)NC(=O)Cc1ccccc1 : inactive
COc1cc2nnn(-c3ccncc3)c2cc1OC : inactive

Ask: Record lookup: outcome of this test for CC1(C(=O)NS(=O)(=O)c2ccccc2Cl)CCN1C(=O)c1cccc(F)c1 (stereo unspecified) ?
Result: inactive

Ask: Record lookup: outcome of this test for COc1cc(C(=O)Nn2c(CC(C)C)nc3ccccc3c2=O)cc(OC)c1OC ?
Result: inactive

Ask: Record lookup: outcome of this test for CCOC(=O)C1CCN(C(=O)Nc2ccc(C)c(Cl)c2)CC1 ?
Result: inactive
